The entries below come with measured 8OG:A repair function score values attached.
B1: library; numbered along this chain (parent)
chain: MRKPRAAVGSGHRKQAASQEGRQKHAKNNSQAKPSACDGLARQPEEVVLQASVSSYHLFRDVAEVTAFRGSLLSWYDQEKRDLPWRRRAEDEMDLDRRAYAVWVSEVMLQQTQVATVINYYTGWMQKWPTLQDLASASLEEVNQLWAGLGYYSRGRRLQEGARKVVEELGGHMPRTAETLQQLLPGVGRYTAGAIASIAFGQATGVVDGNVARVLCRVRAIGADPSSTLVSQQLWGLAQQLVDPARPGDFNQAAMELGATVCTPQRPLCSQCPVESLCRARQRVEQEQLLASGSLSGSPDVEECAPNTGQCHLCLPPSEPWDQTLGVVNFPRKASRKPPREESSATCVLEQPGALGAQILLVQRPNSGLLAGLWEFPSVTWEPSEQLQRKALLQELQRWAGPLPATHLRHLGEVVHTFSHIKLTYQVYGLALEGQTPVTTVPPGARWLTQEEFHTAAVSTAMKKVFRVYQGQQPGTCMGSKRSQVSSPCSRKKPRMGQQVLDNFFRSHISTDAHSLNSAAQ

variants of: B1; assay: 8OG:A repair function score (normalized; synonymous = 0, nonsense = -1) (normalized log-likelihood score); higher = more repair activity (WT-like); settings: with 8OG:A DNA repair reporter (GFP) in HEK-293 MUTYH KO cells;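 also: cells sorted at 72 h after reporter transfection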
test_readout: 8OG:A repair function score

{"sequence_variant": "S153H", "obs_value": -0.0258}
{"sequence_variant": "G248R", "obs_value": -0.738}
{"sequence_variant": "A405G", "obs_value": -0.0383}
{"sequence_variant": "I198Y", "obs_value": -0.792}
{"sequence_variant": "L423S", "obs_value": 0.137}
{"sequence_variant": "H312I", "obs_value": 0.0886}
{"sequence_variant": "A147K", "obs_value": -0.229}
{"sequence_variant": "E168M", "obs_value": -0.0593}
{"sequence_variant": "G258V", "obs_value": -1.2}
{"sequence_variant": "Q113R", "obs_value": 0.032}
{"sequence_variant": "T449E", "obs_value": -0.0743}
{"sequence_variant": "D502I", "obs_value": -0.0355}
{"sequence_variant": "L40H", "obs_value": 0.00147}
{"sequence_variant": "T511G", "obs_value": 0.00111}
{"sequence_variant": "G471P", "obs_value": -0.0663}
{"sequence_variant": "G297N", "obs_value": -0.00835}
{"sequence_variant": "S507N", "obs_value": -0.0395}
{"sequence_variant": "A36P", "obs_value": 0.00994}
{"sequence_variant": "L295A", "obs_value": -0.00496}
{"sequence_variant": "A391C", "obs_value": -0.0464}
{"sequence_variant": "S270H", "obs_value": 0.0198}
{"sequence_variant": "T417A", "obs_value": 0.198}
{"sequence_variant": "S419P", "obs_value": -0.574}
{"sequence_variant": "Q78R", "obs_value": 0.00285}
{"sequence_variant": "L392D", "obs_value": -0.872}
{"sequence_variant": "Y56R", "obs_value": -0.0483}
{"sequence_variant": "H407F", "obs_value": -0.245}
{"sequence_variant": "Y120I", "obs_value": -0.425}
{"sequence_variant": "P383F", "obs_value": -0.202}
{"sequence_variant": "V284C", "obs_value": -0.0207}
{"sequence_variant": "S138G", "obs_value": 0.0657}
{"sequence_variant": "H312E", "obs_value": 0.0205}
{"sequence_variant": "P129Q", "obs_value": -0.0447}
{"sequence_variant": "A245F", "obs_value": 0.00779}
{"sequence_variant": "K164V", "obs_value": 0.027}
{"sequence_variant": "I221K", "obs_value": -0.986}
{"sequence_variant": "T263A", "obs_value": -0.167}
{"sequence_variant": "A519Y", "obs_value": 0.0154}
{"sequence_variant": "T449C", "obs_value": -0.0406}
{"sequence_variant": "K164L", "obs_value": 0.0383}
{"sequence_variant": "M496K", "obs_value": 0.00764}
{"sequence_variant": "L313F", "obs_value": -0.0503}
{"sequence_variant": "C278M", "obs_value": -1.52}
{"sequence_variant": "L145N", "obs_value": 0.0178}
{"sequence_variant": "Q181T", "obs_value": -0.0945}
{"sequence_variant": "A51N", "obs_value": -0.00641}
{"sequence_variant": "L387K", "obs_value": 0.00861}
{"sequence_variant": "Q111R", "obs_value": -0.248}
{"sequence_variant": "Q363N", "obs_value": -0.441}
{"sequence_variant": "S480Q", "obs_value": -0.00583}
{"sequence_variant": "V114H", "obs_value": -0.935}
{"sequence_variant": "E302D", "obs_value": -0.367}
{"sequence_variant": "Q484F", "obs_value": -0.005}
{"sequence_variant": "W399N", "obs_value": -0.463}
{"sequence_variant": "S54N", "obs_value": -0.00348}
{"sequence_variant": "D243F", "obs_value": -0.786}
{"sequence_variant": "V117N", "obs_value": -1.21}
{"sequence_variant": "T417N", "obs_value": 0.149}
{"sequence_variant": "F68V", "obs_value": -0.0136}
{"sequence_variant": "D94L", "obs_value": -0.105}
{"sequence_variant": "M255E", "obs_value": -0.876}
{"sequence_variant": "L95A", "obs_value": 0.00636}
{"sequence_variant": "R189K", "obs_value": -0.0681}
{"sequence_variant": "E46V", "obs_value": 0.0528}
{"sequence_variant": "W447Q", "obs_value": -1.16}
{"sequence_variant": "T417L", "obs_value": -0.0186}
{"sequence_variant": "A354G", "obs_value": -0.0387}
{"sequence_variant": "S486I", "obs_value": -0.0359}
{"sequence_variant": "G170S", "obs_value": 0.00875}
{"sequence_variant": "D512L", "obs_value": -0.0115}
{"sequence_variant": "E350K", "obs_value": -0.17}
{"sequence_variant": "A67R", "obs_value": 0.00599}
{"sequence_variant": "R336Q", "obs_value": -0.218}
{"sequence_variant": "P320I", "obs_value": -0.0716}
{"sequence_variant": "G444A", "obs_value": -0.284}
{"sequence_variant": "D133T", "obs_value": -0.0145}
{"sequence_variant": "F376Q", "obs_value": -1.35}
{"sequence_variant": "S138A", "obs_value": -0.0766}
{"sequence_variant": "K493Y", "obs_value": 0.00504}
{"sequence_variant": "G155L", "obs_value": -0.574}
{"sequence_variant": "G123Q", "obs_value": 0.213}
{"sequence_variant": "E79V", "obs_value": -0.000865}
{"sequence_variant": "V427T", "obs_value": -0.409}
{"sequence_variant": "S296N", "obs_value": -0.0281}
{"sequence_variant": "L229P", "obs_value": -0.112}
{"sequence_variant": "A36H", "obs_value": 0.146}
{"sequence_variant": "T66N", "obs_value": -0.0376}
{"sequence_variant": "E46K", "obs_value": -0.0383}
{"sequence_variant": "A196N", "obs_value": -0.697}
{"sequence_variant": "Q286K", "obs_value": -0.000545}
{"sequence_variant": "L134S", "obs_value": -0.514}
